- SYSTEM: Sentrin-specific protease 8 (Homo sapiens)
- METHOD DESCRIPTION: blockers of human SENP8 peptidase activity – biochemical, luminescence, primary screen (AID 2540)
- MEASUREMENT CONDITIONS: purified SENP8, Z-RLRGG-aminoluciferin cleavage, at 10 µM, active compounds read high
The whole screen tested about 330,000 compounds, of which about 4,100 (1.2%) were called active. Many of the other results were omitted from the sample, so actives are more common in it than they were.
ENDPOINT NAME: inhibition (%)
Just the number please, in %, no unit attached.

Ask: Fill in the blank: the reported inhibition of N=c1oc2ccccc2cc1C(=O)N/N=C/c1ccccc1 is ____.
Reply: 86.5

Ask: Repeat with COC(=O)c1ccc(Sc2ccc(F)cc2)c(N)c1
Reply: -1.32

Ask: Same question for N=c1oc2ccccc2cc1C(=O)NCc1ccccc1 please.
Reply: -17.9

Ask: Also CC(OC(=O)CNC(=O)c1cccc(F)c1)C(=O)NC1CCCCC1C (stereo unspecified) ?
Reply: -11.2

Ask: Item: Cc1ccc(NS(=O)(=O)c2ccc(C(C)C)cc2)cc1S(=O)(=O)N1CCOCC1
Reply: -8.64

Ask: Same lookup for CC(C)CN(Cc1c(O)ccc2c(=O)c(-c3ccccc3)coc12)CC(C)C , please.
Reply: -6.97

Ask: Same lookup for CC(C)[C@H](NC(=O)N1CCn2c1nc1ccccc12)C(=O)NC1CC1 , please.
Reply: -8.07

Ask: # iterate: CCc1ccc(Oc2coc3cc(O)ccc3c2=O)cc1
Reply: -15.7

Ask: Param item: O=c1[nH]cnc(O)c1C(c1ccc(F)cc1)c1c(O)nc[nH]c1=O
Reply: -12.7

Ask: Cc1ccc(/C=N/NC(=O)c2cc3ccccc3cc2O)o1 ?
Reply: 55.8

Ask: Now give it for CNC(=O)c1cc2c(ccc3ccccc32)oc1=N too.
Reply: -3

---

- SYSTEM: Sentrin-specific protease 8 (Homo sapiens)
- METHOD DESCRIPTION: blockers of human SENP8 peptidase activity – biochemical, luminescence, primary screen (AID 2540)
- MEASUREMENT CONDITIONS: purified SENP8, Z-RLRGG-aminoluciferin cleavage, at 10 µM, active compounds read high
Out of some 330,000 compounds screened, about 4,100 (1.2%) were called active. For the sample, actives were picked, then their nearest neighbours and some compounds at random.
ENDPOINT NAME: inhibition (%)
Report the value in % with no unit label.

Ask: I'd like to know its inhibition. The molecule in question is CCN(CC)C(=O)CSc1ncnc2c1cnn2-c1ccccc1
Reply: 2.66

Ask: Cool, now CC1(c2ccc3ccccc3c2)NC(=O)NC1=O (configuration not stated)
Reply: -0.811

Ask: Follow-up item: COc1ccc(NC(=O)C2CCCN(S(=O)(=O)c3cccc4cccnc34)C2)cc1 (configuration not stated)
Reply: 6

Ask: Okay, and COc1ccc(NC(=O)Nc2cccc3cccnc23)cc1 ?
Reply: 81

Ask: And COC(=O)CSc1ncnc2c1cnn2-c1ccc(C)cc1C ?
Reply: 6.59

Ask: How about this molecule: COc1cccc(NC(=O)c2ccc3c(SCC(=O)O)c4c(nc3c2)CCCC4)c1
Reply: -3.32

Ask: Entry to check: COc1ccc(C)cc1N(C)C(=O)c1coc(=O)c2ccccc12
Reply: -8.47

Ask: # iterate: Nc1nc(NCC(=O)O)nc(N2CCCCCC2)c1[N+](=O)[O-]
Reply: -1.61

Ask: Now consider CCn1cc(CN2CCC(C(=O)Nc3cccc(-c4cccc(Cl)c4)c3)CC2)c(C)n1 .
Reply: -6.83

Ask: Query CC(C)CCN1CCN(C/C=C/c2ccco2)CC1CCO (configuration not stated) next
Reply: 4.76

Ask: Again, but for CN1C(=O)CC(c2ccccc2)C1=O (configuration not stated)
Reply: 1.07

Ask: Follow-up entry: O=C(Nc1cccc2cccnc12)c1cccc(Cl)c1
Reply: 8.84
